- Tested on: Vero E6 infected with SARS-CoV-2
- protocol: SARS-CoV-2 infection rate relative to infected DMSO; higher = more infection, active = 60 or less
- condition summary: 24 h
For each entry below, report its SARS-CoV-2 infection rate value.

Problem: Please tell me: SARS-CoV-2 infection rate of C#Cc1cnc2nc(O)n(C(CC)CC)c2n1 [tirasemtiv] (10 µM) , system Vero E6 infected with SARS-CoV-2?
Solution: 104% (inactive)

Problem: What reported SARS-CoV-2 infection rate corresponds to CCC(C)(C)c1ccc(CC(C)CN2C[C@@H](C)O[C@@H](C)C2)cc1 (some centres not stated) [amorolfine] (10 µM) on Vero E6 infected with SARS-CoV-2?
Solution: 93% (inactive)

Problem: Record CC(C(=O)O)c1ccc2c(c1)[nH]c1ccc(Cl)cc12 (configuration not stated) [carprofen] (10 µM) : what is its SARS-CoV-2 infection rate with Vero E6 infected with SARS-CoV-2?
Solution: 108% (inactive)

Problem: // fetch Vero E6 infected with SARS-CoV-2 SARS-CoV-2 infection rate for O=[N+]([O-])c1c(Nc2cc(F)cc(Cl)c2)ccc2nonc12 (10 µM)
Solution: 94.5% (inactive)

Problem: Request - read-out SARS-CoV-2 infection rate | tested on Vero E6 infected with SARS-CoV-2 | compound Oc1ccc(Nc2nc(-c3ccc(Cl)cc3)cs2)cc1 (10 µM)
Solution: 106% (inactive)

Problem: // fetch Vero E6 infected with SARS-CoV-2 SARS-CoV-2 infection rate for CN1CCN(c2nc(C3=C(c4c[nH]c5ccccc45)C(=O)NC3=O)c3ccccc3n2)CC1 [sotrastaurin] (10 µM)
Solution: 119% (inactive)

Problem: What value of SARS-CoV-2 infection rate on Vero E6 infected with SARS-CoV-2 does C[C@H](NC[C@H](O)CP(=O)(O)Cc1ccccc1)c1ccc(Cl)c(Cl)c1 (10 µM) have?
Solution: 106% (inactive)

Problem: Param readout= SARS-CoV-2 infection rate; system= Vero E6 infected with SARS-CoV-2; entry= CCC(=O)O[C@@H]1CC(=O)O[C@H](C)C/C=C/C=C/[C@H](O)[C@H](C)C[C@H](CC=O)[C@H](O[C@@H]2O[C@H](C)[C@@H](O[C@H]3C[C@@](C)(O)[C@@H](OC(=O)CC)[C@H](C)O3)[C@H](N(C)C)[C@H]2O)[C@H]1OC [midecamycin] (10 µM) ; returns value.
Solution: 102% (inactive)

Problem: API: value(readout=SARS-CoV-2 infection rate, system=Vero E6 infected with SARS-CoV-2) for record Cc1cccc(C)c1NC(=O)CN1CCCC1=O [nefiracetam] (10 µM)
Solution: 113% (inactive)

Problem: For Vero E6 infected with SARS-CoV-2, provide SARS-CoV-2 infection rate of Cc1ccc(Cl)c(Nc2ccccc2C(=O)O)c1Cl [meclofenamic-acid] (10 µM) please.
Solution: 108% (inactive)

Problem: Provide value of SARS-CoV-2 infection rate for this record tested with Vero E6 infected with SARS-CoV-2: Nc1ccn([C@@H]2O[C@@](CO)(CCl)[C@@H](O)[C@H]2F)c(=O)n1 (10 µM)
Solution: 104% (inactive)

Problem: Lookup: SARS-CoV-2 infection rate / Vero E6 infected with SARS-CoV-2 / N#CCC(=O)c1ccccc1 (10 µM)
Solution: 112% (inactive)

Problem: Identify the measured SARS-CoV-2 infection rate of O=C(O)c1cc(=O)c2ccccc2o1 [chromocarb] (10 µM) for Vero E6 infected with SARS-CoV-2.
Solution: 106% (inactive)

Problem: I'm curious: which SARS-CoV-2 infection rate was measured for O=C(/C=C/c1c(C(=O)O)[nH]c2cc(Cl)cc(Cl)c12)Nc1ccccc1 [gavestinel] (10 µM) tested on Vero E6 infected with SARS-CoV-2?
Solution: 108% (inactive)

Problem: Identify the measured SARS-CoV-2 infection rate of CC1=C(/C=C/C(C)=C/C=C/C(C)=C/CO)C(C)(C)CCC1 [retinol] (10 µM) for Vero E6 infected with SARS-CoV-2.
Solution: 110% (inactive)

Problem: # value lookup — system Vero E6 infected with SARS-CoV-2, readout SARS-CoV-2 infection rate, item Cc1cc(C)c(S(=O)(=O)Nc2cccc(C(F)(F)F)c2)c(C)c1 (10 µM)
Solution: 108% (inactive)

Problem: Param readout = SARS-CoV-2 infection rate; param system = Vero E6 infected with SARS-CoV-2; param query = CCN(CC)CC1CCN(c2ncc3ncnc(Nc4ccc(F)c(Cl)c4)c3n2)CC1 (10 µM) ; response: value
Solution: 112% (inactive)
